Taken from a melting point compilation (Tetko et al.; mined from patent text by program, amines drawn as free bases though some values may be those of a salt).

Compound | melting point
CCCCc1nn(-c2cc(NC(=S)CCC)ccc2Cl)c(=O)n1Cc1ccc(-c2ccccc2S(=O)(=O)NC(=O)OC(C)(C)C)cc1F | 115 to 117 °C
CN(C)c1ccc2nc3c4ccccc4c(=Nc4ccncc4)cc-3oc2c1 | 217 to 218 °C
COc1ccc(-c2nc(-c3ccc(F)cc3)sc2-c2ccc(OC)cc2)cc1 | 140 to 142 °C
CCCCCC1(C)OCc2c1cnc(C)c2OCC(=O)O (stereo not given) | 211 °C
Cc1oc(-c2ccc3ccccc3c2)nc1COc1ccc(CCCCC2OC(=O)NC2=O)cc1 (stereo not given) | 163 to 164 °C
Cc1cc([N+](=O)[O-])c(NC(C)C)c([N+](=O)[O-])c1NC(C)C | 96 to 97 °C
COc1ccc2c(n1)C1(CO2)C(=O)N(Cc2ccc(C(F)(F)F)o2)c2cccc(Cl)c21 (stereo not given) | 106 to 108 °C
Cc1ccnc(NC(=O)c2nnc3ccccc3c2O)c1 | 339 to 341 °C
COc1ccc(Cl)c(C(N)=O)c1F | 154 to 156 °C
NC(=O)NN=Cc1ccc(OCc2ccccc2F)cc1 | 211 to 212 °C
COc1ncc([N+](=O)[O-])c(OC)n1 | 92 to 93 °C
CC1=C(c2cccc(C(F)(F)F)c2)n2ncc(C(N)=O)c2NC1 | 200 to 202 °C
CNC(=O)NC1CCCc2sccc21 (stereo not given) | 183 to 186 °C
CC(C)(C)c1cc(Nc2ccc(C(=O)O)cc2)cc(C(C)(C)C)c1O | 241 to 243 °C
CCOC(=O)Nc1nc(-c2ccccc2)c(-c2nc3ccccc3c(=O)n2-c2ccccc2)s1 | 245 to 247 °C
CNC1CCCN(c2c(F)cc3c(=O)c(C(=O)O)cn(C4CC4)c3c2OC)C1 (stereo not given) | 134 to 135 °C
CC(=O)c1ccc(C2=CCCCC2)cc1 | 76 to 77 °C
COc1cc(C(=O)O)ccc1OCCCO | 162 °C
CC(=O)c1cc(C(F)(F)F)nn1-c1ccc(NC(=O)c2ccccc2F)cc1 | 188 to 189 °C
CC(C)(C)c1cc(N=C(O)c2cc(C(O)=Nc3cc(C(C)(C)C)c(O)c(C(C)(C)C)c3)c(C(=O)O)cc2C(=O)O)cc(C(C)(C)C)c1O | 304 to 306 °C
